FYI, the data here is from patent US11787799B2.

Test system: Enterovirus D68/US/Mo/14-18949
Procedure Details: Antiviral assay, Enterovirus D68 strain US/Mo/14-18949 in RD cells
Assay type: cell-based
Experimental Conditions: Enterovirus D
pEC50: −log10 of the molar value.
Property Name: pEC50

>>> df
                                smiles_code  numeric_readout
0  CC(C)n1ncc2c(NC(=O)c3ccc(F)cc3)cc(-c3cccs3)nc21             5.60

====

Data export: CC50 values recorded with HeLa-RW cells.
Property Name: CC50 (µM)

>>> df
                                smiles_code  property_name  numeric_readout
0  CC(C)n1ncc2c(C(=O)Nc3ccccn3)cc(-c3ccccc3)nc21           CC50             18.8
1  CC(C)n1ncc2c(C(=O)Nc3ccc(F)cc3)cc(C3CC3)nc21           CC50               10
2  CC(C)n1ncc2c(C(=O)Nc3cc(S(N)(=O)=O)ccc3F)cc(-c3cccs3)nc21           CC50               18
3  CC(C)n1ncc2c(C(=O)Nc3ccccc3S(N)(=O)=O)cc(-c3cccs3)nc21           CC50               10
